System: Plasmodium berghei
TEST: Screen against P. berghei liver stage (PbLuc), transformed with Luciferase, at 10uM
Type: functional, HepG2
STATED_CONDITIONS: tested at 10 uM
Hit rate of the full screen: of about 69,000 compounds, about 8,600 (12%) showed an effect of 50% or more. For the sample, strong results were picked, then their nearest neighbours and some compounds at random.

{"MOLECULE": "c1ccc2c(c1)CC(n1ccnc1-c1cc3n(n1)CCCNC3)CO2 (centres undefined)", "INHIBITION / %": 18.5}
{"MOLECULE": "Cn1nc(Br)c2c(NCCN)ncnc21", "INHIBITION / %": 15.7}
{"MOLECULE": "CN1CCN(C(=O)c2cnn(-c3ccccc3Cl)c2)CC1", "INHIBITION / %": 14.1}
{"MOLECULE": "Cc1ncc(C(=O)N2CCCN(Cc3ccccc3F)CC2)c(O)n1", "INHIBITION / %": 34.9}
{"MOLECULE": "CCN1CC(C(=O)N2CCc3cc(C(=O)N(C)C)n(C)c3C2)CCC1=O (centres undefined)", "INHIBITION / %": 51.7}
{"MOLECULE": "O=C(c1cnc(C2CC2)nc1O)N1CCN(Cc2ccccc2F)CC1", "INHIBITION / %": -0.554}
{"MOLECULE": "CCN1CC(C(=O)N2CCc3cc(C(N)=O)n(C)c3C2)CC1=O (centres undefined)", "INHIBITION / %": 32.2}
{"MOLECULE": "Nc1nc(CC(=O)N2CCCC(CCc3cccc(F)c3)C2)cc(=O)[nH]1 (centres undefined)", "INHIBITION / %": 7.3}
{"MOLECULE": "Cc1ccc(C2(O)CCN(C(=O)c3cccc(S(C)(=O)=O)c3)CC2)nc1", "INHIBITION / %": -6.09}
{"MOLECULE": "CC(=O)N1CCCN(C(=O)c2cnn(-c3ccccc3Cl)c2)CC1", "INHIBITION / %": 47}
{"MOLECULE": "Cc1cc(S(=O)(=O)NCC[S+](C)[O-])c(F)cc1F (centres undefined)", "INHIBITION / %": 37.6}
{"MOLECULE": "O=C(COCC1CCCCO1)N1CCN(Cc2ccccc2F)C(=O)C1 (centres undefined)", "INHIBITION / %": 45.6}
{"MOLECULE": "CN(C)c1ccc(CNCc2cnc(N3CCOCC3)nc2)cn1", "INHIBITION / %": 12.6}
{"MOLECULE": "CCN1CC(C(=O)N2CCc3cc(C(N)=O)n(C)c3C2)CCC1=O (centres undefined)", "INHIBITION / %": 54.5}

---

System: Plasmodium berghei
TEST: Screen against P. berghei liver stage (PbLuc), transformed with Luciferase, at 10uM
Format: functional, HepG2
STATED_CONDITIONS: tested at 10 uM
The whole screen tested about 69,000 compounds, of which about 8,600 (12%) showed an effect of 50% or more. The entries come from a sample that favours strong results as a whole.
Decide using INHIBITION alone. Strictly below 30%: yes. Equal to or above 30%: no.

{"COMPOUND": "COc1ccc2c(c1)C1(CCN(Cc3nccs3)CC1)N(C)CC2", "ASSIGNED_CATEGORY": "no"}
{"COMPOUND": "COc1cc(N2CCC3(CCN(Cc4csc(C)n4)C3=O)C2)ncn1 (centres undefined)", "ASSIGNED_CATEGORY": "no"}
{"COMPOUND": "Cc1ccc(N2CCC3(CCN(Cc4nccs4)CC3)CC2)nn1", "ASSIGNED_CATEGORY": "yes"}
{"COMPOUND": "CCC(C)(C)n1nnnc1C(c1cccs1)N1CCc2ccccc21 (centres undefined)", "ASSIGNED_CATEGORY": "no"}
{"COMPOUND": "CC(=O)N1CCC2(CC1)C(=O)N(CC1CC1)c1ccccc12", "ASSIGNED_CATEGORY": "yes"}
{"COMPOUND": "Cc1cnc(N2CCC3(CCN(Cc4csc(C)n4)C3=O)C2)nc1 (centres undefined)", "ASSIGNED_CATEGORY": "no"}
{"COMPOUND": "Cc1ccc(N2CCC3(CCN(Cc4csc(C)n4)C3=O)C2)nn1 (centres undefined)", "ASSIGNED_CATEGORY": "no"}
{"COMPOUND": "Cc1ccc(N2CCC3(CCN(Cc4ccccn4)CC3)CC2)nn1", "ASSIGNED_CATEGORY": "yes"}
{"COMPOUND": "CC(C)OCCCNC(=O)CN1C=Nc2ccccc2S1(=O)=O", "ASSIGNED_CATEGORY": "yes"}
{"COMPOUND": "Cc1ncc2c(n1)CN(Cc1nc(Cc3ccccc3)no1)CC2", "ASSIGNED_CATEGORY": "no"}
{"COMPOUND": "Cc1cc(NC2CC3(CCN(Cc4csc(C)n4)C3)C2)ncn1 (centres undefined)", "ASSIGNED_CATEGORY": "yes"}
{"COMPOUND": "CC(NC(=O)CN1C=Nc2ccccc2S1(=O)=O)c1ccccc1 (centres undefined)", "ASSIGNED_CATEGORY": "yes"}
{"COMPOUND": "CC(O)CN1CCN(C(=O)c2ccc(N3CCCC3)nn2)CC1 (centres undefined)", "ASSIGNED_CATEGORY": "yes"}

---

Tested on: Plasmodium berghei
TEST: Screen against P. berghei liver stage (PbLuc), transformed with Luciferase, at 10uM
Type: functional, HepG2
STATED_CONDITIONS: tested at 10 uM
Screen size: about 69,000 compounds; about 8,600 (12%) showed an effect of 50% or more. What follows is part of a selection rich in strong results, with near analogues and random picks from the rest.
Would you mind classing the entries by INHIBITION? Ranges: lower level (below 10%), middle level (10% to below 50%), upper level (50% or more)

{"COMPOUND": "COc1cnc(N2C[C@@H](CN3CCOCC3)[C@@H](CO)C2)nc1", "ASSIGNED_CATEGORY": "lower level"}
{"COMPOUND": "Cc1nc(CN2C[C@@H]3CN(C(=O)c4ccco4)C[C@@H]3C2=O)cs1", "ASSIGNED_CATEGORY": "middle level"}
{"COMPOUND": "COCC1(Nc2nc(C)nc3c2cnn3C)CCCC1", "ASSIGNED_CATEGORY": "upper level"}
{"COMPOUND": "CC(C)(Cn1cnc(-c2ccccc2)c1-c1ccco1)N1CCOCC1", "ASSIGNED_CATEGORY": "upper level"}
{"COMPOUND": "CCCN1CC[C@@H]2OC[C@H](C(=O)Nc3cccnc3)C[C@@H]2C1", "ASSIGNED_CATEGORY": "upper level"}
{"COMPOUND": "O=C(CCOc1ccccc1Cl)N1CCN(c2cnccn2)CC1", "ASSIGNED_CATEGORY": "lower level"}
{"COMPOUND": "CN(C)C(=O)N1Cc2nnn(CC3CC3)c2C(COCC2CC2)C1 (centres undefined)", "ASSIGNED_CATEGORY": "lower level"}
{"COMPOUND": "C1CC(N2Cc3nnn(CC4CC4)c3C(COCC3CC3)C2)C1 (centres undefined)", "ASSIGNED_CATEGORY": "upper level"}
{"COMPOUND": "c1ccc(COc2ccccc2CNC2CCc3ncnn3C2)cc1 (centres undefined)", "ASSIGNED_CATEGORY": "middle level"}
{"COMPOUND": "Cc1nsc(N2CCCN(C(=O)NCc3cc(C)on3)CC2)n1", "ASSIGNED_CATEGORY": "middle level"}
{"COMPOUND": "Cc1occc1C(=O)N1CCC2(CCN(Cc3cccs3)C2)CC1", "ASSIGNED_CATEGORY": "lower level"}
{"COMPOUND": "CNC(=O)[C@H]1CO[C@H]2CCN(c3ncc(F)cn3)C[C@H]2C1", "ASSIGNED_CATEGORY": "lower level"}
{"COMPOUND": "Cc1nc(CN2CCC3(CCCO3)CC2)c2ccccn12", "ASSIGNED_CATEGORY": "upper level"}
{"COMPOUND": "COCC1CN(Cc2ccncc2)Cc2nnn(CC3CC3)c21 (centres undefined)", "ASSIGNED_CATEGORY": "middle level"}
{"COMPOUND": "Cc1ccc(C2(O)CCN(Cc3nc(C)n4ccccc34)CC2)nc1", "ASSIGNED_CATEGORY": "middle level"}
{"COMPOUND": "CC(C)NC(=O)[C@H]1C[C@H]2OCC[C@H]2N(Cc2ccc3ccccc3n2)C1", "ASSIGNED_CATEGORY": "upper level"}
{"COMPOUND": "Cn1c(N)c2c(=O)n(C)c(-c3ccc(Cl)cc3)cc2c(C#N)c1=O", "ASSIGNED_CATEGORY": "lower level"}
{"COMPOUND": "Cc1cncc(C2CCCN(C(=O)c3cnco3)C2)n1 (centres undefined)", "ASSIGNED_CATEGORY": "middle level"}
{"COMPOUND": "Cc1cc(C(=O)N2CCC3(CCC(=O)N(CC(N)=O)C3)CC2)ccc1O", "ASSIGNED_CATEGORY": "lower level"}
{"COMPOUND": "Cc1cc(C(F)(F)F)cc(N2C[C@@H](CN3CCOCC3)[C@@H](CO)C2)n1", "ASSIGNED_CATEGORY": "upper level"}
{"COMPOUND": "CCc1nc(C2NC3(CCCC3)C(=O)N2CC2CC2)cs1 (centres undefined)", "ASSIGNED_CATEGORY": "upper level"}
{"COMPOUND": "Cc1nc2ccccn2c1CN1C[C@@H](CN2CCOCC2)[C@@H](CO)C1", "ASSIGNED_CATEGORY": "middle level"}
{"COMPOUND": "CN(C)CC(C)(C)Cn1cnc(-c2ccccc2)c1-c1ccncc1", "ASSIGNED_CATEGORY": "lower level"}
{"COMPOUND": "Cc1occc1C(=O)N1CCC2(CCN(Cc3nccs3)C2)CC1", "ASSIGNED_CATEGORY": "lower level"}
{"COMPOUND": "Cc1ccc(CN2C[C@@H]3CCCO[C@@H]3[C@H](NS(C)(=O)=O)C2)o1", "ASSIGNED_CATEGORY": "middle level"}
{"COMPOUND": "Cc1nc(CN2C[C@@H](CN3CCOCC3)[C@@H](CO)C2)c2ccccn12", "ASSIGNED_CATEGORY": "upper level"}
{"COMPOUND": "O=C(Nc1cccnc1)[C@H]1CO[C@H]2CCN(c3ncc(F)cn3)C[C@H]2C1", "ASSIGNED_CATEGORY": "middle level"}
{"COMPOUND": "OCc1nnn2c1CN(Cc1cccnc1)CCC2", "ASSIGNED_CATEGORY": "middle level"}
{"COMPOUND": "CN(CCCO)c1nc(-c2ccc(C(N)=O)cc2)nc2c1CCNC2", "ASSIGNED_CATEGORY": "lower level"}
{"COMPOUND": "CSCCc1c(-c2ccccc2)ncn1CC(C)(C)N1CCOCC1", "ASSIGNED_CATEGORY": "upper level"}
{"COMPOUND": "CC(C)Oc1ccccc1C1CC(=O)Nc2c1cnn2C (centres undefined)", "ASSIGNED_CATEGORY": "lower level"}
{"COMPOUND": "Cc1noc(C)c1-c1cccc(C2CN(CC(=O)N(C)C)CCO2)n1 (centres undefined)", "ASSIGNED_CATEGORY": "middle level"}
